target: Sialic acid-binding Ig-like lectin 9 (Homo sapiens); test: Hs-Siglec9 ALPHAscreen SOP 20170721; parameters: scale not given: direction of the effect not stated beside the values; conditions: 10 µM
quantityName: Percent Effect (%)
Report the value in % with no unit label.

Ask: Query: Percent Effect; subject: COc1cc(C(=O)N2CCCC(CNS(C)(=O)=O)C2)cc(OC)c1C (stereo unspecified)
Reply: -1.48

Ask: What do you have for `Cc1nc[nH]c1CN1CCN(C(=O)CCC(F)(F)F)[C@H]2CS(=O)(=O)C[C@H]21` ?
Reply: 12

Ask: What do you have for `COCCN1CC[C@]2(CN(C(=O)c3cccs3)C[C@H]2C)C1=O` ?
Reply: 1.96

Ask: What do you have for `O=C(NCCN1CCNCC1)c1nc2ccccc2c(=O)[nH]1` ?
Reply: -5.44

Ask: What do you have for CC(C)(C)c1cn2nc(N3CCOC(Cn4cncn4)C3)sc2n1 (stereo unspecified) ?
Reply: -8.45

Others:
Ask: Query: Percent Effect; subject: `O=C(C1CC1)N1CCN(Cc2coc(-c3ccc(Cl)cc3)n2)CC1`
Reply: 13.9

Ask: What do you have for `CN1CCN(C[C@@H]2CN(C(=O)c3ccccc3C#N)C[C@@H]2CO)CC1` ?
Reply: 10.3

Ask: What do you have for `Cc1ccc(C(=O)N2CCN(Cc3ccsc3)CC2)n1C` ?
Reply: 2.26

Ask: What do you have for COc1ccc(C2CC(=O)Nc3c2nc2n3CCCC2)cc1O (stereo unspecified) ?
Reply: 6.46

Ask: What do you have for COc1ccc(CC(=O)N2CCCCC2Cn2cccn2)cc1OC (stereo unspecified) ?
Reply: 0.458

Ask: What do you have for Cc1cnn(CC2CN(CC(=O)Nc3nnc(C)s3)CCO2)c1 (stereo unspecified) ?
Reply: 3.55

Ask: What do you have for `CCN1CCO[C@]2(CCC[C@H]2COCc2csc(C)n2)C1` ?
Reply: 11

Ask: What do you have for `Cn1ccnc1N1CCN(C(=O)Cc2ccc(F)cc2)CC1` ?
Reply: 3.61

Ask: What do you have for CC(OCC1CC1)C(=O)N1CCCN(c2ncccc2C#N)CC1 (stereo unspecified) ?
Reply: -8.93

Ask: What do you have for CC(Cc1ccco1)NC(=O)Nc1ccc(S(C)(=O)=O)nc1 (stereo unspecified) ?
Reply: -1.24

Ask: What do you have for CC(O)CN1CCN(C(=O)c2ccc(Br)o2)CC1 (stereo unspecified) ?
Reply: -7.51

###

biological target: AMP-activated protein kinase, AMPK (Homo sapiens) (UniProt P54646+O43741+P54619+Q9UGJ0+Q9Y478+Q13131+Q9UGI9); assay: AMP-dependent Kinase enzyme assay. An in vitro enzyme assay that detects ADP turnover that is directly proportional to AMPK activity. This uses naive AMPK that is activated during the assay with MK-8722; format: functional; set-up: scale not given: direction of the effect not stated beside the values; details: 30 µM
quantityName: Percent Effect (%)
Report the value in % with no unit label.

Ask: Query: Percent Effect; subject: Cc1cnn(Cc2cc(F)ccc2F)c1NC(=O)C1COCCO1 (centres undefined)
Reply: 1.44

Ask: What do you have for `CN(C)Cc1cnc2n1CCN(Cc1ccsc1)CC2` ?
Reply: -4.83

Ask: What do you have for `Fc1ccccc1-c1noc2c1CN(CC1CC1)CC2` ?
Reply: 1.26

Others:
Ask: Query: Percent Effect; subject: `CCOCCCn1c(NC(=O)c2ccc(C)nc2)nc2ccccc21`
Reply: 10.5

Ask: What do you have for `Cc1ncsc1C(=O)NCCSCc1cccs1` ?
Reply: -1.07

Ask: What do you have for `CCCC(=O)N1CC[C@@H]2[C@H](CC1)N(Cc1cccnc1)CCS2(=O)=O` ?
Reply: 3.63

Ask: What do you have for `COC(=O)c1sccc1S(=O)(=O)N1CCC(Oc2cccnn2)CC1` ?
Reply: 16.5

Ask: What do you have for CN(C)Cc1nc(C(C)(C)NC(=O)C2CC(=O)N(CC3CC3)C2)no1 (centres undefined) ?
Reply: 0.168

Ask: What do you have for CC(NC(=O)Cc1cccs1)c1nnc2n1CCCCC2 (centres undefined) ?
Reply: 0.496

###

system: Trypanosoma cruzi; experiment: Trypanosoma cruzi phosphomannomutase and mannose-1-phosphate guanylyltransferase assay; assay type: functional; parameters: scale not given: direction of the effect not stated beside the values; conditions: 10 µM
quantityName: Percent Effect (%)
Report the value in % with no unit label.

Ask: Query: Percent Effect; subject: COc1cccc(CN2CCN(c3ccc4nncn4n3)C(C)C2)c1 (stereo not given)
Reply: -3

Ask: What do you have for `COC(=O)CCc1c(C)nc2cc(O)nn2c1C` ?
Reply: 1.31

Ask: What do you have for `Cc1ccc(OC2(C(=O)O)CCN(C(=O)c3ccc(F)cc3)CC2)cn1` ?
Reply: 9.41

Ask: What do you have for COc1ccc(F)cc1C(C)NC(=O)c1nnc(C)s1 (stereo not given) ?
Reply: -2.05

Ask: What do you have for CC1CCCN(C(=O)c2cccc(CS(C)(=O)=O)c2)C1 (stereo not given) ?
Reply: 2.72

Others:
Ask: Query: Percent Effect; subject: `CC(=O)NCCNC(=O)c1sc(-c2ccc(Cl)s2)nc1C`
Reply: -5.29

###

molecular target: Tyrosyl-tRNA synthetase, putative (Trypanosoma cruzi (strain CL Brener)); assay: Trypanosoma cruzi tyrosyl tRNA synthetase (TcYRS) SOP; assay type: functional; parameters: scale not given: direction of the effect not stated beside the values; details: 30 µM
The entries below are paired with their reported Percent Effect.
Report the value in % with no unit label.

Ask: Query: Percent Effect; subject: CN(C)C(CNC(=O)NCCc1cccc(O)c1)c1ccco1 (stereo not drawn)
Reply: 6.17

Ask: What do you have for `COc1nc(C)c(C(=O)N(C)Cc2nc(-c3ccccn3)no2)s1` ?
Reply: 13.6

Others:
Ask: Query: Percent Effect; subject: `CN(C)CCN1C[C@@H]2CN(C(=O)c3ccsc3)C[C@@H]2C1=O`
Reply: 1.24

###

biological target: AMP-activated protein kinase, AMPK (Homo sapiens) (UniProt P54646+O43741+P54619+Q9UGJ0+Q9Y478+Q13131+Q9UGI9); assay: AMP-dependent Kinase enzyme assay. An in vitro enzyme assay that detects ADP turnover that is directly proportional to AMPK activity. This uses naive AMPK that is activated during the assay with MK-8722; assay type: functional; design: scale not given: direction of the effect not stated beside the values; details: 30 µM
quantityName: Percent Effect (%)
Report the value in % with no unit label.

Ask: Query: Percent Effect; subject: COc1ccc(COCC(O)CNC(=O)c2cccnc2)cc1 (stereo unspecified)
Reply: 0.844

Ask: What do you have for Cc1cnn(C2CCCN(C(=O)c3ccnc(-n4ccnc4)c3)C2)c1 (stereo unspecified) ?
Reply: 2.83

Ask: What do you have for `CC(=O)N1CCC(C(=O)NCCN2CCCCC2)CC1` ?
Reply: -3.56

Ask: What do you have for Cc1cc(C)n(CC2CCCN2CC(=O)N(C)C)n1 (stereo unspecified) ?
Reply: -5.85

Ask: What do you have for CC(=O)Nc1nc(C(=O)N2CCCC2c2ccccc2C)cs1 (stereo unspecified) ?
Reply: 8.63

Others:
Ask: Query: Percent Effect; subject: `O=C(c1ccc[nH]1)N1C[C@H]2CC[C@@H]1CN(c1ncccn1)C2`
Reply: 7.19

Ask: What do you have for c1ccc2oc(CCCN3CCOC(Cn4cccn4)C3)nc2c1 (stereo unspecified) ?
Reply: 0.772

###

molecular target: Chromo domain-containing protein 1 (Saccharomyces cerevisiae (strain ATCC 204508 / S288c) (Baker's yeast)) (UniProt P32657); test: ScCHD-1 Enzyme Inhibition Assay; type: functional; parameters: scale not given: in the data most compounds retested in dose-response had high values; settings: 30 µM
Sequence (P32657 whole entry, the tested form may be a part): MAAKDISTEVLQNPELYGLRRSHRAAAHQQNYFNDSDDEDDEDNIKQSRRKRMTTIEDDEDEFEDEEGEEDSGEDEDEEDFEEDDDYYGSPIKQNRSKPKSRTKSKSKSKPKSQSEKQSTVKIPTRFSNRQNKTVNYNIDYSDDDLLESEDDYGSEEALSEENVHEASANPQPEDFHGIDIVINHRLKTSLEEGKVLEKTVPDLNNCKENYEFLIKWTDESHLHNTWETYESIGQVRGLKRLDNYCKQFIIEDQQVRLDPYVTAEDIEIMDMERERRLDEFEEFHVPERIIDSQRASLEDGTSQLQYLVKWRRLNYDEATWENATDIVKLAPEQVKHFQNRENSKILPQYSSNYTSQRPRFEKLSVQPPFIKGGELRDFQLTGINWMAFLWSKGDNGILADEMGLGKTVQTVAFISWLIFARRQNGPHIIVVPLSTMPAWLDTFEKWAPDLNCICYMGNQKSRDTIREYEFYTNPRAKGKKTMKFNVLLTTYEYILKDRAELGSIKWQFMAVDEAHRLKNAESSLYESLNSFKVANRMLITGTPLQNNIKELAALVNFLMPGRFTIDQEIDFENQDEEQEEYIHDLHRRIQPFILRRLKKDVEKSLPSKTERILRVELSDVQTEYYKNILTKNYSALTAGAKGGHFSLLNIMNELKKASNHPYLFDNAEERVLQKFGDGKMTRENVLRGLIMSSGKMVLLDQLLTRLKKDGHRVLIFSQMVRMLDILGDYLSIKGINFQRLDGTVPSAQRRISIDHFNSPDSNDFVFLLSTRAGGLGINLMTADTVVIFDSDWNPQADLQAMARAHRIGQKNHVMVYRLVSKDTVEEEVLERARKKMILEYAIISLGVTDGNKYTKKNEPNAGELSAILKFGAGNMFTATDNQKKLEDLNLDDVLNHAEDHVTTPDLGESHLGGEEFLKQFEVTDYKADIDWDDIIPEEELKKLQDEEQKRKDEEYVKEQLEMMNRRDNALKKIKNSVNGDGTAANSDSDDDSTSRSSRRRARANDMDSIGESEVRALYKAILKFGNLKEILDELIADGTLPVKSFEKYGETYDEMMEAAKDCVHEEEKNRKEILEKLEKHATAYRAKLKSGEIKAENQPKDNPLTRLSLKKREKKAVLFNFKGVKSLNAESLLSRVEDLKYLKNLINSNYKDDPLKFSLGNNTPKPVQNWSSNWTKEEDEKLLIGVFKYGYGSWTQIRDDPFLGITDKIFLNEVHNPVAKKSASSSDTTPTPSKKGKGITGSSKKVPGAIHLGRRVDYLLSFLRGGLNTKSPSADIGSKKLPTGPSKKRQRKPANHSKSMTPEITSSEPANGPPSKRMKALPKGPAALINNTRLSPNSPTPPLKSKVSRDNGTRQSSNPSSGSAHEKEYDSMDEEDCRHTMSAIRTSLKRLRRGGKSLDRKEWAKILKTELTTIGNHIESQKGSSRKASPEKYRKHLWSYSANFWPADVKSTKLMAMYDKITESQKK
The entries below are paired with their reported Percent Effect.
Report the value in % with no unit label.

Ask: Query: Percent Effect; subject: COc1ccc(CNC(=O)NC2CCC(O)CC2)c(C(F)(F)F)c1 (configuration not stated)
Reply: -2.64

Ask: What do you have for Cn1cnc2c1C(COCC1CC1)CN(Cc1ccsc1)C2 (configuration not stated) ?
Reply: -6.29

Ask: What do you have for `CC(C)(C)c1cn2nc(N3CCC[C@@H]3CO)sc2n1` ?
Reply: -0.0525

Ask: What do you have for `NC(=O)c1ccc2c(c1)nc1n2CCN(Cc2ccccc2)C1` ?
Reply: 6.79

Ask: What do you have for `CS(=O)(=O)N1CCN(C(=O)Cn2ccc3c(Cl)cccc32)CC1` ?
Reply: -0.985

Ask: What do you have for `CN1CCN(c2ncnc3c2c(C(=O)NC2CC2)c2ccccn23)CC1` ?
Reply: -13.6

###

The entries below are paired with their reported Percent Effect.
target: Ubiquitin-activating enzyme e1, putative (Leishmania donovani (strain BPK282A1)) (UniProt E9BSI1); assay: Leishmania donovani Ubiquitin Activating Enzyme (LdE1); format: functional; set-up: scale not given: direction of the effect not stated beside the values; details: 30 µM
Sequence (E9BSI1 as listed by the source): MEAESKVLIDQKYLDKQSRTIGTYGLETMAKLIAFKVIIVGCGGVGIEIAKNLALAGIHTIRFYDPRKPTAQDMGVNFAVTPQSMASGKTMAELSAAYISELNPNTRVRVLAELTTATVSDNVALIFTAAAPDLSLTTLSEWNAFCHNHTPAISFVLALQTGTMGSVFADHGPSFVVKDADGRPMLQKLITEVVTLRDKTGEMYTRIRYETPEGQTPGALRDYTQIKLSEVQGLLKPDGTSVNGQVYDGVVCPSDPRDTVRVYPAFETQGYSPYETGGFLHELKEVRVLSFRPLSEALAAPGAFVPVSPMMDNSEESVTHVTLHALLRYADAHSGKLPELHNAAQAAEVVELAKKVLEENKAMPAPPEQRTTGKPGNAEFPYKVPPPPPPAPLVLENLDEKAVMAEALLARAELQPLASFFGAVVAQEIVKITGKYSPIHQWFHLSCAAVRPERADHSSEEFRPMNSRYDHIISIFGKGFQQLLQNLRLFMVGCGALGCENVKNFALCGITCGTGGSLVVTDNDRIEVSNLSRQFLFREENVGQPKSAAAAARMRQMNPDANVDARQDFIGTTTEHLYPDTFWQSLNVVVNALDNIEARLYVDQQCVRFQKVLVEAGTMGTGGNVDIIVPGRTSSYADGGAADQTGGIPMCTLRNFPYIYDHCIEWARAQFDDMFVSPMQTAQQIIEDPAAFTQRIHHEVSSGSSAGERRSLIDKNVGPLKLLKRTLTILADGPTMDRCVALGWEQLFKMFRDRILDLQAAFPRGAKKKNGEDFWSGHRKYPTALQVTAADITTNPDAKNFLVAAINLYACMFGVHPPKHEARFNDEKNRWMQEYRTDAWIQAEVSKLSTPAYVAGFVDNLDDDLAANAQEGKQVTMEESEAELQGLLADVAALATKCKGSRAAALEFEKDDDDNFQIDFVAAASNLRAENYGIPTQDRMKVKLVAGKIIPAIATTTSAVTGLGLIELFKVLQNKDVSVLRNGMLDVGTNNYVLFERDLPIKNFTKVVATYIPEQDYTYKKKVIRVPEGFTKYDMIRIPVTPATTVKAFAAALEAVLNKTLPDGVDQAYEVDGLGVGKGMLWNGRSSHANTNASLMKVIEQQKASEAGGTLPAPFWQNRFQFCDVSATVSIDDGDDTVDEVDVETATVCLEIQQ
Entries with a potency or affinity are not part of this list.
Report the value in % with no unit label.

Ask: Query: Percent Effect; subject: `CN(C)CCN1C[C@@H]2CN(C(=O)c3ccsc3)C[C@@H]2C1=O`
Reply: 5.2

Others:
Ask: Query: Percent Effect; subject: CC(=O)NCC(=O)N1CCOC2(CCCN(c3cccnc3)C2)C1 (stereo not drawn)
Reply: 2.7

Ask: What do you have for `Cc1cc(OCC(=O)NS(=O)(=O)c2c(C)noc2C)ccc1Cl` ?
Reply: -5.13
